# assay-target: Hsp90 in C. albicans (SC5314) lysate (Candida albicans, UniProt P46598)
# Construct: endogenous in cells; host or cells: C. albicans SC5314 whole-cell lysate
# Sequence (P46598 whole entry): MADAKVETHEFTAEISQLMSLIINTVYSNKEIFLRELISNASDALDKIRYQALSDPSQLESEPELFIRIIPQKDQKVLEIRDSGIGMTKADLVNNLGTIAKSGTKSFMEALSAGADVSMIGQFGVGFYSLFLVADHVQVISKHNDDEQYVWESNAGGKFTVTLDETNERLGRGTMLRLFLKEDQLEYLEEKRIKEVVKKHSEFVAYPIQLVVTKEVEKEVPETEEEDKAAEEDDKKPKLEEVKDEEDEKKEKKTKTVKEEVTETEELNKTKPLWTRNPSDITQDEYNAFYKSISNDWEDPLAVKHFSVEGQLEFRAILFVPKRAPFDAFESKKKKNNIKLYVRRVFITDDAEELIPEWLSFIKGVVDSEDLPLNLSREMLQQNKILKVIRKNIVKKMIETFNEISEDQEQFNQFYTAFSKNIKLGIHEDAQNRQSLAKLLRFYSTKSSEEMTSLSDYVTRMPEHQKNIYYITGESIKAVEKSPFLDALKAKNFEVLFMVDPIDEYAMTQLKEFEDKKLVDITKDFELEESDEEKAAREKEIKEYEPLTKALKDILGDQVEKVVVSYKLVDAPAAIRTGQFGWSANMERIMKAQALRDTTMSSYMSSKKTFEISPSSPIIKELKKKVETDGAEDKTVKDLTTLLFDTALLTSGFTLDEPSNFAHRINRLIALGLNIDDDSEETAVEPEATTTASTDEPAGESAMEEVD
# procedure-summary: biochemical
# Type: binding
# measurement-conditions: SC5314 lysate, 1000 nM compound, raw
value-type: FP signal
Write the value as a bare number.

C[C@@H]1C[C@@H]2O[C@@H]2/C=C\C=C\C(=NOCc2ccccc2Cl)Cc2c(Cl)c(O)cc(O)c2C(=O)O1: 75
CCON=C1/C=C/C=C\[C@H]2O[C@H]2C[C@@H](C)OC(=O)c2c(O)cc(O)c(Cl)c2C1: 36
CC1CC2OC2C=CC=CC(=NOCc2ccccc2)Cc2c(Cl)c(O)cc(O)c2C(=O)O1 (mixture of isomers): 42
Cc1ccc(CON=C2C=CC=CC3OC3CC(C)OC(=O)c3c(O)cc(O)c(Cl)c3C2)cc1 (mixture of isomers): 108
COc1ccc(CON=C2C=CC=CC3OC3CC(C)OC(=O)c3c(O)cc(O)cc3C2)cc1 (stereo not shown): 69

Task: # return recorded FP signal for input CC1CC2OC2C=CC=CC(=NOCCN2CCCC2=O)Cc2c(Cl)c(O)cc(O)c2C(=O)O1 (stereo not shown) [KF58333, reference compound]
Output: 37

Task: # return recorded FP signal for input COc1ccccc1CON=C1C=CC=CC2OC2CC(C)OC(=O)c2c(O)cc(O)c(Cl)c2C1 (mixture of isomers)
Output: 57

====

# assay-target: Hsp90 in C. albicans (SC5314) lysate (Candida albicans)
# Construct: endogenous in cells; host or cells: C. albicans SC5314 whole-cell lysate
# procedure-summary: biochemical
# Format: binding
# measurement-conditions: SC5314 lysate, 0.5 uM
Let's look at some compounds and their measured FP signal (raw).
Write the value as a bare number.

CC1(C)CC(=O)c2c(C(F)(F)F)nn(-c3ccc(C(N)=O)c(N[C@H]4CC[C@H](O)CC4)c3)c2C1: 0
COc1ccc(CON=C2C=CC=CC3OC3CC(C)OC(=O)c3c(O)cc(O)cc3C2)cc1 (mixture of isomers): 38
CCNC(=O)c1noc(-c2cc(C(C)C)c(O)cc2O)c1-c1ccc(CN2CCOCC2)cc1 [AUY922, reference compound]: 3

Task: # return recorded FP signal (raw) for input COC1=C2C[C@@H](C)C[C@H](OC)[C@H](O)[C@@H](C)/C=C(\C)[C@H](OC(N)=O)[C@@H](OC)/C=C\C=C(/C)C(=O)NC(=CC1=O)C2=O [geldanamycin, reference compound]
Output: -7

====

# assay-target: Hsp90 in C. albicans (SC5314) lysate (Candida albicans, UniProt P46598)
# Construct: endogenous in cells; host or cells: C. albicans SC5314 whole-cell lysate
# procedure-summary: biochemical
# Format: binding
# measurement-conditions: SC5314 lysate, 333.333 nM compound
Binning rule for recorded FP signal relative to 0 nM: range 1 (below 0.6), range 2 (0.6 to below 0.7), range 3 (0.7 or more)

COc1ccccc1CON=C1C=CC=CC2OC2CC(C)OC(=O)c2c(O)cc(O)c(Cl)c2C1 (mixture of isomers): range 2
CC1CC2OC2C=CC=CC(=NOCCN2CCCC2=O)Cc2c(Cl)c(O)cc(O)c2C(=O)O1 (stereo not drawn) [KF58333, reference compound]: range 1

Task: Class for CC1CC2OC2C=CC=CC(=NOCc2ccccc2)Cc2c(Cl)c(O)cc(O)c2C(=O)O1 (mixture of isomers) ?
Output: range 2

Task: Class for Cc1ccc(CON=C2C=CC=CC3OC3CC(C)OC(=O)c3c(O)cc(O)c(Cl)c3C2)cc1 (mixture of isomers) ?
Output: range 3

Task: Class for CC1CC2OC2C=CC=CC(=NOCc2cccc(F)c2)Cc2c(Cl)c(O)cc(O)c2C(=O)O1 (mixture of isomers) ?
Output: range 1

Task: Class for CCON=C1/C=C/C=C\[C@H]2O[C@H]2C[C@@H](C)OC(=O)c2c(O)cc(O)c(Cl)c2C1 ?
Output: range 1

Task: Class for COc1ccc(CON=C2C=CC=CC3OC3CC(C)OC(=O)c3c(O)cc(O)c(Cl)c3C2)cc1 (mixture of isomers) ?
Output: range 3

====

# System: Hsp90 in HEPG2 lysate
# measurement-conditions: HepG2 lysate, 111.111 nM compound, raw
Let's look at some compounds and their measured FP signal.
Write the value as a bare number.

COC1=C2C[C@@H](C)C[C@H](OC)[C@H](O)[C@@H](C)/C=C(\C)[C@H](OC(N)=O)[C@@H](OC)/C=C\C=C(/C)C(=O)NC(=CC1=O)C2=O [geldanamycin, reference compound]: 59

Task: # return recorded FP signal for input CC1CC2OC2C=CC=CC(=NOCCN2CCCC2=O)Cc2c(Cl)c(O)cc(O)c2C(=O)O1 (stereo not drawn) [KF58333, reference compound]
Output: 46

Task: # return recorded FP signal for input COc1ccccc1CON=C1C=CC=CC2OC2CC(C)OC(=O)c2c(O)cc(O)c(Cl)c2C1 (mixture of isomers) [compound 226]
Output: 197

====

# assay-target: Hsp90 in C. albicans (SC5314) lysate (Candida albicans)
# Construct: endogenous in cells; host or cells: C. albicans SC5314 whole-cell lysate
# procedure-summary: biochemical
# Assay type: binding
# measurement-conditions: SC5314 lysate, 0.25 uM
value-type: FP signal (raw)
Write the value as a bare number.

Known results for molecules:
CCNC(=O)c1noc(-c2cc(C(C)C)c(O)cc2O)c1-c1ccc(CN2CCOCC2)cc1 [AUY922, reference compound]: -2
COc1ccc(CON=C2C=CC=CC3OC3CC(C)OC(=O)c3c(O)cc(O)cc3C2)cc1 (mixture of isomers): 60
COC1=C2C[C@@H](C)C[C@H](OC)[C@H](O)[C@@H](C)/C=C(\C)[C@H](OC(N)=O)[C@@H](OC)/C=C\C=C(/C)C(=O)NC(=CC1=O)C2=O [geldanamycin, reference compound]: 2

# evaluate next
Task: # return recorded FP signal (raw) for input CC1(C)CC(=O)c2c(C(F)(F)F)nn(-c3ccc(C(N)=O)c(N[C@H]4CC[C@H](O)CC4)c3)c2C1
Output: 4

====

# assay-target: Hsp90 in C. albicans (SC5314) lysate (Candida albicans)
# Construct: endogenous in cells; host or cells: C. albicans SC5314 whole-cell lysate
# procedure-summary: biochemical
# Format: binding
# measurement-conditions: SC5314 lysate, 4.115 nM
value-type: FP signal (raw)
Write the value as a bare number.

Known results for compounds:
COc1ccc(CON=C2C=CC=CC3OC3CC(C)OC(=O)c3c(O)cc(O)c(Cl)c3C2)cc1 (mixture of isomers): 205
COc1ccc(CON=C2C=CC=CC3OC3CC(C)OC(=O)c3c(O)cc(O)cc3C2)cc1 (stereo not shown): 199
CC1CC2OC2C=CC=CC(=NOCc2cccc(F)c2)Cc2c(Cl)c(O)cc(O)c2C(=O)O1 (mixture of isomers): 190
CC1CC2OC2C=CC=CC(=NOCc2ccccc2)Cc2c(Cl)c(O)cc(O)c2C(=O)O1 (mixture of isomers): 198
Cc1ccc(CON=C2C=CC=CC3OC3CC(C)OC(=O)c3c(O)cc(O)c(Cl)c3C2)cc1 (mixture of isomers): 200

Task: # return recorded FP signal (raw) for input CCON=C1/C=C/C=C\[C@H]2O[C@H]2C[C@@H](C)OC(=O)c2c(O)cc(O)c(Cl)c2C1
Output: 114

Task: # return recorded FP signal (raw) for input CC1(C)CC(=O)c2c(C(F)(F)F)nn(-c3ccc(C(N)=O)c(N[C@H]4CC[C@H](OC(=O)CN)CC4)c3)c2C1
Output: 177

====

# assay-target: Hsp90 in C. albicans (SC5314) lysate (Candida albicans)
# Construct: endogenous in cells; host or cells: C. albicans SC5314 whole-cell lysate
# procedure-summary: biochemical
# Type: binding
# measurement-conditions: SC5314 lysate, 111.111 nM compound
Binning rule for recorded FP signal relative to 0 nM: 1 (below 0.8), 2 (0.8 to below 0.9), 3 (0.9 or more)

Use these answered entries as a reference point.
CC1CC2OC2C=CC=CC(=NOCCN2CCCC2=O)Cc2c(Cl)c(O)cc(O)c2C(=O)O1 (stereo not drawn) [KF58333, reference compound]: 1
CCON=C1/C=C/C=C\[C@H]2O[C@H]2C[C@@H](C)OC(=O)c2c(O)cc(O)c(Cl)c2C1 [compound 333]: 1
COc1ccccc1CON=C1C=CC=CC2OC2CC(C)OC(=O)c2c(O)cc(O)c(Cl)c2C1 (mixture of isomers) [compound 226]: 2
Cc1ccc(CON=C2C=CC=CC3OC3CC(C)OC(=O)c3c(O)cc(O)c(Cl)c3C2)cc1 (mixture of isomers) [compound 218]: 3

Field: next molecule
Task: Class for COc1ccc(CON=C2C=CC=CC3OC3CC(C)OC(=O)c3c(O)cc(O)c(Cl)c3C2)cc1 (mixture of isomers) [compound 224] ?
Output: 3
